Where do these numbers come from? They come from ChEMBL document CHEMBL1153905.

In this section we review reported IC50 values for a set of molecules.
test: Cytotoxicity against mouse Hepa-1c1c7 cells after 48 hrs by MTT assay; assay type: cell-based; conditions: hepa-1c1c7, 48 h

O=C1Nc2ccccc2/C1=C\c1cccc(F)c1 = > 25 µM

Q: What does the data say about its IC50? Entry: COc1ccc(/C=C2/C(=O)Nc3ccccc32)c(OC)c1
A: 11.1 µM

Q: Looking for the measured IC50 of COc1cccc(/C=C2/C(=O)Nc3ccc(Cl)cc32)c1 , can you help?
A: 17.5 µM

Q: Fill in the blank: the reported IC50 of COc1ccccc1/C=C1/C(=O)Nc2ccccc21 is ____.
A: > 25 µM

Q: Which measured IC50 value corresponds to COc1cccc(/C=C2/C(=O)Nc3cc(Cl)ccc32)c1 ?
A: > 25 µM

Q: Return reported IC50; argument: O=C1Nc2ccccc2/C1=C\c1ccccc1F
A: > 25 µM
